Record form. Attribute: IC50. Fill in for each entry.
Tested on: TNFα production in THP-1 cells
Assay: LPS induced TNFα production assay in THP-1 cells
Format: cell-based
Details: Homo sapiens, 300 ng/mL LPS, measured at 5 hours

Enquiry: Endpoint output: IC50 of NC(=O)/C=C/c1ccc2ncnc(N[C@H]3CC[C@H](N4CCOCC4)CC3)c2c1 . Value?
Return: 500 to 5000 nM

Enquiry: Endpoint output: IC50 of c1nc(O[C@H]2CC[C@H](N3CCOCC3)CC2)c2c3c(ccc2n1)CCC3 . Value?
Return: 500 to 5000 nM

Enquiry: Endpoint output: IC50 of OCCc1ccc2ncnc(N[C@H]3CC[C@H](N4CCOCC4)CC3)c2c1 . Value?
Return: 500 to 5000 nM

Enquiry: Endpoint output: IC50 of N#CCc1ccc2ncnc(N[C@H]3CC[C@H](N4CCC5(CC4)CC5)CC3)c2c1 . Value?
Return: ≤ 500 nM

The reported numbers originate from patent US20150329498A1.
